Measured target: T1, TRCW5 antigen (CD3δε-Fc-Avi) (biotinylated (site not stated))
T1 construct: also called recombinant CD3
T1 sequence (chain, as listed by the source mutant limits assumed): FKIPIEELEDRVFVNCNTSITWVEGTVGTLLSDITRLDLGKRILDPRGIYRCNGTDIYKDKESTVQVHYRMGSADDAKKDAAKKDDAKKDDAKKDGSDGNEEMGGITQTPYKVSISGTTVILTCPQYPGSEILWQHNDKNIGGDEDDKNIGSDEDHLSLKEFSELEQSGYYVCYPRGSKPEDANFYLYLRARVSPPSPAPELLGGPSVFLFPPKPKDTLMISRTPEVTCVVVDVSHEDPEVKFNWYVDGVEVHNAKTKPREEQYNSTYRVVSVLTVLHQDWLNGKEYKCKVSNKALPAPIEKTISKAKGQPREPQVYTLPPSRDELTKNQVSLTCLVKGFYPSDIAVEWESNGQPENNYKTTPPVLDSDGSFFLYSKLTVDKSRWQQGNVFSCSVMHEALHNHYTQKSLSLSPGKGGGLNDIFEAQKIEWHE
Assay remarks: ELISA after heat
Overview of reported % Retained 60° C. across a group of binders:

{"columns": ["Binder", "% Retained 60° C., %"],
 "data": [
  ["CD3B2085 (scFv) scFv: QVQLVQSGAEVKKPGSSVKVSCKASGYTFTRSTMHWVRQAPGQGLEWMGYINPSSAYTNYAQKFQGRVTLTADKSTSTAYMELSSLRSEDTAVYYCASPQVHYDYNGFPYWGQGTLVTVSSGGSEGKSSGSGSESKSTGGSEIVLTQSPATLSASPGERVTLSCSASSSVSYMNWYQQKPGTAPRRWIYDSSKLASGVPARFSGSGSGRDYTLTISSLEPEDFAVYYCQQWSRNPPTFGGGTKVEIK", 117],
  ["CD3B2077 (scFv) scFv: QVQLVQSGAEVKKPGSSVKVSCKASGYTFTRSTMHWVRQAPGQGLEWIGYINPSSAYTNYAQKFQGRVTLTADKSTSTAYMELSSLRSEDTAVYYCASPQVHYDYNGFPYWGQGTLVTVSSGGSEGKSSGSGSESKSTGGSEIVLTQSPATLSASPGERVTLSCSASSSVSYMNWYQQKPGTAPRRWIYDSSKLASGVPARFSGSGSGRDYTLTISSLEPEDFAVYYCQQWSRNPPTFGGGTKVEIK", 107],
  ["CD3B2041 (scFv) scFv: QVQLVQSGAEVKKPGSSVKVSCKASGYTFTRSTMHWVRQAPGQGLEWIGYINPSSAYTNYNQKFQGRVTLTADKSTSTAYMELSSLRSEDTAVYYCASPQVHYDYNGFPYWGQGTLVTVSSGGSEGKSSGSGSESKSTGGSEIVLTQSPATLSASPGERVTLSCSASSSVSYMNWYQQKPGTAPRRWIYDSSKLASGVPARFSGSGSGRDYTLTISSLEPEDFAVYYCQQWSRNPPTFGGGTKVEIK", 97]
]}

Measured values drawn from patent US20250145711A1 for this set.
